B1: PI4K2A (parent)
chain: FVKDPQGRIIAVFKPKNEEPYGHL

Variants of: B1
assay notes: protein stability index of a GFP-peptide fusion (GPS, HEK-293T) (PSI 1-6); higher = more stable;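 also: lentivirally expressed fusions sorted by FACS into six bins by GFP to DsRed ratio, PSI derived from sequencing read proportions per bin multiplied by bin number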
condition description: c terminus: a fixed tail appended
Kindly supply the reported protein stability index values for the records listed here.
Would you mind answering with just the numeric figure?

Q. Reported protein stability index, variant R8E : ____
A. 1.98

Q. Please report the recorded protein stability index for E18L .
A. 3.88

Q. Return reported protein stability index; argument: K16V
A. 2.79

Q. What does the record list as protein stability index for E19I ?
A. 2.62

Q. Consider the variant L24I and give its measured protein stability index.
A. 1.92

Q. Would you kindly share the measured protein stability index for E19A ?
A. 1.58

Q. # lookup: protein stability index of P20Q
A. 1.7

Q. What protein stability index value was documented for this variant, P15N ?
A. 2.26

Q. I am curious: what protein stability index value has been reported for G22K ?
A. 2.44

Q. Given the entry L24N , report its measured protein stability index.
A. 1.63

Q. I am curious: what protein stability index value has been reported for F1M ?
A. 2.76

Q. Item under review: I9T . Reported protein stability index?
A. 2.34

Q. Fill in: protein stability index of G7W is ___
A. 3.45

Q. // query protein stability index value for entry K14R
A. 1.18

Q. Entry under review: E18D . Reported protein stability index?
A. 2.16

Q. // lookup protein stability index for D4T
A. 1.48

Q. Consider the variant shown here: P20T What is its recorded protein stability index?
A. 2.01

Measured values drawn from the supplement of paper PMC10567573 for this set.
